Numbers sourced from the supplement of paper PMC9112550.

- System: Escherichia coli TOP10;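 also: peptides expressed intracellularly from a pBAD plasmid library in pooled LB shake-flask culture, induced with 0.3% L-arabinose, DNA abundance read by NGS, three biological replicates, DESeq2 with apeglm shrinkage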
- Run description: shrunken log2 fold change of peptide-encoding DNA abundance (4.5 h post-induction vs induction); higher = less antimicrobial activity (less host growth inhibition)
- Run parameters: time post-induction: 4.5 h; library: site-saturation at positions 5, 18, 19, 20
Classify as follows. Reported shrunken log2 fold change greater than or equal to 0.007: t. Reported shrunken log2 fold change below: f.

1. RRIRIRPPRLPRPRPRPEQSPRP t
2. RRIRGRPPRLPRPRPRPTNQPRP t
3. RRIRARPPRLPRPRPRPSTEPRP t
4. RRIRFRPPRLPRPRPRPLEQPRP t
5. RRIRRRPPRLPRPRPRPNFMPRP t
6. RRIRWRPPRLPRPRPRPNRIPRP f
7. RRIRIRPPRLPRPRPRPQVLPRP f
8. RRIRYRPPRLPRPRPRPYIMPRP f
9. RRIRRRPPRLPRPRPRPMTTPRP t
10. RRIRYRPPRLPRPRPRPIVEPRP t
11. RRIRWRPPRLPRPRPRPEHNPRP t
12. RRIRLRPPRLPRPRPRPIIVPRP f
13. RRIRVRPPRLPRPRPRPKCDPRP t
14. RRIRSRPPRLPRPRPRPNDGPRP f
15. RRIRERPPRLPRPRPRPAQYPRP t
